This collection of values is drawn from PubChem BioAssay (NCI).

# Test system: DU-145 prostate
# protocol summary: NCI-60 one-dose screen, 48 h (100 = growth as untreated, 0 = no growth, -100 = all killed)
# condition notes: 10 µM unless noted
Compounds without any hit were thinned out: in the full panel of roughly 83,000, 20% have a hit.
Kindly supply the reported growth values for the records listed here.
Your answer is read as %, so omit the unit and give the number.

Noted for "CC(C)[C@@H]1CC[C@]2(C(=O)NCCCCN=C(N)N)CC[C@]3(C)[C@H](CC[C@@H]4[C@@]5(C)CCC(=O)C(C)(C)[C@@H]5CC[C@]43C)[C@@H]12" : its growth reads 81.3

Noted for "O=C1C[C@H](N2C(=O)c3ccccc3S2(=O)=O)C2CO[C@@H]1O2" : its growth reads 87.8

Noted for "NC(=S)N/N=C/c1ccc(OCc2ccccc2)cc1" : its growth reads 85.3

Noted for "COc1cccc(-c2cn3c(ccc4ccccc43)n2)c1" : its growth reads 39

Noted for "COc1ccc(C(=O)COc2ccc(/C=C3\Oc4ccc(Cl)cc4C3=O)cc2)cc1" : its growth reads 107

Noted for "CC(=O)Oc1cc2cnc3c4cc(OC(C)=O)c(OC(C)=O)cc4ccc3c2cc1OC(C)=O" : its growth reads 16.6

Noted for COc1cc(C2CC(=O)Nc3c2cnn3Cc2ccco2)cc2c1OCCO2 (centres undefined) : its growth reads 104

Noted for "COc1ccc(S(=O)(=O)NCCNc2nccc(-c3c(-c4cccc(N)c4)nc4sccn34)n2)cc1" : its growth reads 105

Noted for "COc1ccc(/C(=C/c2ccc3ccccc3c2)c2nn[nH]n2)cc1OC" : its growth reads 20.9

* * *

# System: SR leukemia
# protocol summary: NCI-60 one-dose screen, 48 h (100 = growth as untreated, 0 = no growth, -100 = all killed)
# condition notes: 10 µM unless noted
The panel holds about 83,000 compounds, 20% with a hit somewhere; the sample as a whole holds those more often.
property label: growth (%)
Your answer is read as %, so omit the unit and give the number.

Noted for C=CC[N+]1(CCO)CCN=C1CCCCCCCCCCCCC (stereo unspecified) : its growth reads -39.7

Noted for "CSc1ccc(N=C=C(c2ccccc2)c2ccccc2)cc1" : its growth reads 50.7

Noted for "CC(=O)C1=C(O)C=C2Oc3c(C(=O)/C=C/c4c(Cl)cccc4Cl)c(O)c(C)c(O)c3[C@]2(C)C1=O" : its growth reads -31

Noted for "O=C1c2cc3c(cc2-c2c1c1cc(Cl)c(Cl)cc1c(=O)n2C[C@H](O)CO)OCO3" : its growth reads -23.2

Noted for "COc1ccc(/C=C2\CN(C(=O)CCN3CCC(=NO)CC3)C/C(=C\c3ccc(OC)cc3)C2=O)cc1" : its growth reads 2.16

Noted for "Oc1c(Cl)cc(Cl)cc1CNc1nccnn1" : its growth reads 93.5

Noted for CS(=O)CCCCCN=C=S (stereo unspecified) : its growth reads -13.9

Noted for "O=C1c2cc3c(cc2-c2c1c1cc(F)c(F)cc1c(=O)n2C[C@H](O)CO)OCO3" : its growth reads -16.5

Noted for O=C1Nc2ccc(Br)cc2C12CC(c1ccccc1)=NN2 (stereo unspecified) : its growth reads 12.5

Noted for CCC(c1ccccc1)C(CC)c1ccc(O)c(O)c1 (stereo unspecified) : its growth reads 55.3

Noted for "Oc1ccc2c(=S)cc(-c3ccc(Br)cc3)oc2c1O" : its growth reads 1.21
